target: human ABCB4 (Homo sapiens)
Sequence (P21439 1-1279 isoform P21439-2): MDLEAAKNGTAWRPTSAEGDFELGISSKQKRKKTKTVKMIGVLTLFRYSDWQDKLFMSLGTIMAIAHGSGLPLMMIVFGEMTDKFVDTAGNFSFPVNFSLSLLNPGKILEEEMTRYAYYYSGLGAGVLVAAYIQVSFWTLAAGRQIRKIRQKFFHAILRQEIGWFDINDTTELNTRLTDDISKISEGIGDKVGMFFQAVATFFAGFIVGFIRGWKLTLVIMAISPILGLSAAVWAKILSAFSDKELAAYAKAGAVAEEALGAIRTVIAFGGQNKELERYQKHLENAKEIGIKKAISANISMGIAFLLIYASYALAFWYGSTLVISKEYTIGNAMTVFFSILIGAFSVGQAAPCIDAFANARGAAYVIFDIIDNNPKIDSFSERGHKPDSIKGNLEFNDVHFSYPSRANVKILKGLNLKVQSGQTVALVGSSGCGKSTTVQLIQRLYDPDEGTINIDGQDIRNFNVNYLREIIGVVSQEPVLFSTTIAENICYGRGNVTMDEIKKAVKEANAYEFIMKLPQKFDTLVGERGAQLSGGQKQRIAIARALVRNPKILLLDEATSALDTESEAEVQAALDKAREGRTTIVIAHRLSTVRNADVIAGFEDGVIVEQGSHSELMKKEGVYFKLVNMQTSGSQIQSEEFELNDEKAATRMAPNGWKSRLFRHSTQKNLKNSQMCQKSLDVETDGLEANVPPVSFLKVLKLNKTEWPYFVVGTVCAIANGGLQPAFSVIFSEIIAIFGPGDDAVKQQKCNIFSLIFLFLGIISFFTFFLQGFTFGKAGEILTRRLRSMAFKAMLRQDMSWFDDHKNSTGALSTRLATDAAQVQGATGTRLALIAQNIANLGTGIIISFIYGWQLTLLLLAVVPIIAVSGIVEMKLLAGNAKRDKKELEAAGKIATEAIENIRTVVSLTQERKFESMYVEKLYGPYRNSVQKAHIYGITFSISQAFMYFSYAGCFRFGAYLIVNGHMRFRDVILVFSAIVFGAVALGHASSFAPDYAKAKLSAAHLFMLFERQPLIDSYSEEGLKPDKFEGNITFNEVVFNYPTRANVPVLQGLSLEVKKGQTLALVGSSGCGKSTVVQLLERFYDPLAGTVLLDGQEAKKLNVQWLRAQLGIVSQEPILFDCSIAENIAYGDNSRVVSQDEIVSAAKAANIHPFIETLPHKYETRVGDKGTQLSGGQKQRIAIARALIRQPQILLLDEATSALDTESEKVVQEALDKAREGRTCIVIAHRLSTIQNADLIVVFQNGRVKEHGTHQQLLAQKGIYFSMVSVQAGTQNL
PARAMETER_MEASURED: IC50 (µM)
Give the value in µM but do not write µM after it.

Q. Please report IC50 for the following compound: `C[C@H](CCC(=O)NCCS(=O)(=O)O)[C@H]1CC[C@H]2[C@@H]3CC[C@@H]4C[C@H](O)CC[C@]4(C)[C@H]3CC[C@]12C`
A. 113

----------
Target: human ABCB4 (Homo sapiens)
Construct: made in house; host or cells: Pichia pastoris (chromosomally integrated)
Experiment: ATP hydrolysis (malachite green) of detergent-solubilized, purified ABCB4: modulation of basal ATPase activity
Assay type: biochemical
Settings: stimulation of basal ATPase activity, allosteric sigmoidal fit; 0-1,000 μM; read-out: EC50
Protocol: The sodium salts of conjugated and unconjugated bile acids were dissolved in double-distilled water (ddH2O) or 100% DMSO at a concentration of 100 mM. […] Modulation of the ATP hydrolysis by bile acid was determined in a concentration-dependent manner from 0 to 1,000 μM bile acids. […] In case of inhibition, the reduction (%) was plotted against the bile acid concentration and data were analyzed using Equation 2:(2) y=ymin+(ymax−ymin)/1+10^((logIC50−x)∗slope) […]
PARAMETER_MEASURED: EC50 (µM)
Give the value in µM but do not write µM after it.

{"MOLECULE_SMILES": "C[C@H](CCC(=O)NCCC[N+](C)(C)CCCS(=O)(=O)[O-])[C@H]1CC[C@H]2[C@@H]3[C@H](O)C[C@@H]4C[C@H](O)CC[C@]4(C)[C@H]3C[C@H](O)[C@]12C", "TARGET": "human ABCB4 (Homo sapiens)", "OUTPUT_UNIT": "µM", "EC50": 151}
{"MOLECULE_SMILES": "C[C@H](CCC(=O)O)[C@H]1CC[C@H]2[C@@H]3CC[C@@H]4C[C@H](O)CC[C@]4(C)[C@H]3C[C@H](O)[C@]12C", "TARGET": "human ABCB4 (Homo sapiens)", "OUTPUT_UNIT": "µM", "EC50": 75}

Q. Please report EC50 for the following compound: `C[C@H](CCC(=O)NCCS(=O)(=O)O)[C@H]1CC[C@H]2[C@@H]3CC[C@@H]4C[C@H](O)CC[C@]4(C)[C@H]3C[C@H](O)[C@]12C`
A. 102
